- testSystem: Cyclin E1 (Homo sapiens, UniProt P24864+Q96SW2)
- Sequence (P24864 whole entry): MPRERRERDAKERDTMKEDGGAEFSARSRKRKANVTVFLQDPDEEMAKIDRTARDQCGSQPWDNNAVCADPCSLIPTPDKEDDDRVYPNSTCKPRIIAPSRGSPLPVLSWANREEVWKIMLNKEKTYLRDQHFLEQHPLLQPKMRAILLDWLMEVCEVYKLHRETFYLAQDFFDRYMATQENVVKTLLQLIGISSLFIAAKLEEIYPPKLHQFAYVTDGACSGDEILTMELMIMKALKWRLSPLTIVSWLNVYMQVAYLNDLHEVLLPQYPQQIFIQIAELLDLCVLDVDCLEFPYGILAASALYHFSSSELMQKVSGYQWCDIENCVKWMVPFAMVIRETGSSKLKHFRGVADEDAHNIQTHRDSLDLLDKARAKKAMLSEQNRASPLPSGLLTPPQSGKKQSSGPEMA
- Sequence (Q96SW2 whole entry): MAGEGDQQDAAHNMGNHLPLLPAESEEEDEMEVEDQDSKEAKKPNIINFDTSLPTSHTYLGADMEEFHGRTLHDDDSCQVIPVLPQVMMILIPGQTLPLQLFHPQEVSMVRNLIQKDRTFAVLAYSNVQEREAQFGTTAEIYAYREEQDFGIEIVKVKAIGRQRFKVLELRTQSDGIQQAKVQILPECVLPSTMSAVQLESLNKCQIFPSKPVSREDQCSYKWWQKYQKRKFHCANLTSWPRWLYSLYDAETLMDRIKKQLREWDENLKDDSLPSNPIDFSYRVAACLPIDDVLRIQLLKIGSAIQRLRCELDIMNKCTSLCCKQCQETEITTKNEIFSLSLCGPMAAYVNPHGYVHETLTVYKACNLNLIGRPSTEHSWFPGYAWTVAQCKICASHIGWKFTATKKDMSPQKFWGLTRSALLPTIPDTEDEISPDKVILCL
- Sequence (Q16531 whole entry partner): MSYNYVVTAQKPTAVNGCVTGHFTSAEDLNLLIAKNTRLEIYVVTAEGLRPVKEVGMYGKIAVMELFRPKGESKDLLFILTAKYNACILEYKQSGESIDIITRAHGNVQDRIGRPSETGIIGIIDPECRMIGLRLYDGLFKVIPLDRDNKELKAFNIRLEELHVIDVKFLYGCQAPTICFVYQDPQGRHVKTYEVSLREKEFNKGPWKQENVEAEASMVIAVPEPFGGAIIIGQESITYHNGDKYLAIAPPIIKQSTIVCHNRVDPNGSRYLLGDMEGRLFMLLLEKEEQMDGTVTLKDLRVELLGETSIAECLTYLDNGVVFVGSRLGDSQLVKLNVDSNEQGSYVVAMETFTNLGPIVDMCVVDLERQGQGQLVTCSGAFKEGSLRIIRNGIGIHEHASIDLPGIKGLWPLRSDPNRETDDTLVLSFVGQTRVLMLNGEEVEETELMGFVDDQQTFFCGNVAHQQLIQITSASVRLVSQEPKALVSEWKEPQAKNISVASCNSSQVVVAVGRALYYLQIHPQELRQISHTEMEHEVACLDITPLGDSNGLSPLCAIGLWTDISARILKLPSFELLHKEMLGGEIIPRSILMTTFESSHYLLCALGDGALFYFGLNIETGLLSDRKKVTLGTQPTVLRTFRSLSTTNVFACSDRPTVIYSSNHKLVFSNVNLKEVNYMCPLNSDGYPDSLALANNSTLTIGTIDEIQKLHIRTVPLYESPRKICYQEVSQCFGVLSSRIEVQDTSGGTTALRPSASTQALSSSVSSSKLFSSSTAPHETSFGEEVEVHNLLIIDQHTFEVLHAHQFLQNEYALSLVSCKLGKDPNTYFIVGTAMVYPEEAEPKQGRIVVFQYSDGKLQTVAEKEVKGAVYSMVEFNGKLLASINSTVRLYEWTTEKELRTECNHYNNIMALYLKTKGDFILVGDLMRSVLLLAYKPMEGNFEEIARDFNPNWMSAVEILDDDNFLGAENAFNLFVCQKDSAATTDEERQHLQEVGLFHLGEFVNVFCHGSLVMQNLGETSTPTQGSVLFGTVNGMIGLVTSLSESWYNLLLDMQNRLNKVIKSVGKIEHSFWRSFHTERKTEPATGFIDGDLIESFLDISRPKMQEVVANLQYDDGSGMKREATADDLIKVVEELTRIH
- methodNotes: Cyclin E1 Cellular Degradation Assay (MSD)
- Format: cell-based
- Parameters: endogenous in cells; host or cells: OVCAR3
- measurementSetup: Cyclin E1 cellular degradation
resultType: DC50 (nM)

{"molecule": "O=C1CCC(N2Cc3ccc(COC(=O)Nc4ccc(Oc5cc(F)c(F)c(F)c5)cc4F)c(O[C@@H]4CCCOC4)c3C2=O)C(=O)N1 (stereo partly shown)", "readingUnit": "nM", "DC50": 182}
{"molecule": "COc1c(COC(=O)Nc2ccc(Oc3ccc(F)cc3Cl)cc2F)ccc2c1C(=O)N(C1CCC(=O)NC1=O)C2 (stereo not shown)", "readingUnit": "nM", "DC50": 52}
{"molecule": "COc1c(COC(=O)Nc2ccc(Oc3cc(F)c(F)cc3C)cc2C)ccc2c1C(=O)N(C1CCC(=O)NC1=O)C2 (stereo not shown)", "readingUnit": "nM", "DC50": 222}

1. COc1c(COC(=O)Nc2ccc(C3(c4ccccc4)CC3)cc2)ccc2c1C(=O)N(C1CCC(=O)NC1=O)C2 (stereo not shown)
2. COc1c(COC(=O)Nc2ccc(Oc3ccc(F)cc3Cl)cc2)ccc2c1C(=O)N(C1CCC(=O)NC1=O)C2 (stereo not shown)
3. O=C1CCC(N2Cc3ccc(COC(=O)Nc4ccc(Oc5ccccc5)cc4)c(OC4CCOCC4)c3C2=O)C(=O)N1 (stereo not shown)
4. COc1c(COC(=O)Nc2ccc(Oc3ccc(F)cc3F)cc2)ccc2c1C(=O)N(C1CCC(=O)NC1=O)C2 (stereo not shown)
q: Sort the molecules on DC50; start with the lowest figure. // list labels; follow requested order
a: 3, 2, 1, 4

====

- Tested on: Phospho-Rb (Ser807/811)
- methodNotes: Phospho-Retinoblastoma (pRB) Cellular Assay
- Assay type: cell-based
- measurementSetup: Homo sapiens, OVCAR-3; NIH OVCAR3 cells, 24 hours; concentration giving 50% response
resultType: IC50 (nM)

Reference set (2 entries):
{"compound": "COc1c(COC(=O)Nc2ccc(Cc3ccc(F)c(Cl)c3)cc2)ccc2c1C(=O)N(C1CCC(=O)NC1=O)C2 (stereo not shown)", "IC50 (nM)": 818}
{"compound": "COc1c(COC(=O)Nc2ccc(Oc3ccc(F)cc3F)cc2F)ccc2c1C(=O)N(C1CCC(=O)NC1=O)C2 (stereo not shown)", "IC50 (nM)": 442}

A. COc1c(COC(=O)Nc2ccc(Oc3ccc(F)cc3Cl)cc2C)ccc2c1C(=O)N(C1CCC(=O)NC1=O)C2 (stereo not shown)
B. O=C1CCC(N2Cc3ccc(COC(=O)Nc4ccc(Oc5ccc(F)c(F)c5)cc4F)c(O[C@@H]4CCOC4)c3C2=O)C(=O)N1 (stereo partly shown)
q: # min-compare on IC50 between A and B State the label of the item chosen.
a: A

====

- testSystem: Cyclin E1 (Homo sapiens, UniProt P24864+Q96SW2)
- methodNotes: Cyclin E1 Cellular Degradation Assay (MSD)
- Assay type: cell-based
- Design: endogenous in cells; host or cells: OVCAR3
- measurementSetup: Cyclin E1 cellular degradation
resultType: DC50 (nM)

Reference set (4 entries):
{"molecule": "COc1c(COC(=O)Nc2ccc(Oc3cccc(F)c3)cc2)ccc2c1C(=O)N(C1CCC(=O)NC1=O)C2 (stereo not drawn)", "numericReadout": 39}
{"molecule": "COc1c(COC(=O)Nc2ccc(Oc3ccc(F)c(F)c3)cc2Cl)ccc2c1C(=O)N(C1CCC(=O)NC1=O)C2 (stereo not drawn)", "numericReadout": 357}
{"molecule": "COc1cc(Oc2cc(F)c(F)cc2F)ccc1NC(=O)OCc1ccc2c(c1OC)C(=O)N(C1CCC(=O)NC1=O)C2 (stereo not drawn)", "numericReadout": 194}
{"molecule": "COc1cc(Oc2cccc(F)c2)ccc1NC(=O)OCc1ccc2c(c1OC)C(=O)N(C1CCC(=O)NC1=O)C2 (stereo not drawn)", "numericReadout": 139}

1. CC(C)Oc1c(COC(=O)Nc2ccc(Oc3ccc(F)c(F)c3)cc2)ccc2c1C(=O)N([C@H]1CCC(=O)NC1=O)C2 (single isomer, unassigned)
2. COc1c(COC(=O)Nc2ccc(Oc3ccc(F)c(F)c3)cc2)ccc2c1C(=O)N([C@H]1CCC(=O)NC1=O)C2 (single isomer, unassigned)
q: # min-compare on DC50 between 1 and 2 State the label of the item chosen.
a: 2
(2: 159 nM, 1: 263 nM)
